Values from ChEMBL document CHEMBL4513149

Hi there, I'd appreciate the recorded Inhibition for every entry that follows.
System: Staphylococcus aureus
measurement-parameters: Concentration 20 uM; ASSAY_TEST Inhibition of Bacterial Growth; detection method Absorption (OD600); MEDIA CAMHB; plate type 384well; NBS; CORNING #3640; time 18 hr
Description: Antibacterial activity against Staphylococcus aureus MRSA ATCC 43300 (CO-ADD:GP_020); MIC in CAMBH media, using NBS plates, by OD(600)
Results with a measured potency or affinity are listed apart.
Give bare numbers, in %.

For orientation, consider the following solved cases.
[[record]]
compound = "C[C@H](C(N)=O)N1CCCC[C@H]1c1ccc(OCc2cccc(F)c2)cc1"
value = 21.57

[[record]]
compound = "CCc1ccccc1-n1c(C)cn2c3c(=O)n(C(C(=O)OC)C(C)C)c(=O)n(C)c3nc12 (centres undefined)"
value = 5.27

[[record]]
compound = "COc1ccc(-c2cncc3ccc(C(=O)NCCCn4ccnc4)nc23)cc1"
value = 13.71

[[record]]
compound = "COc1cncc(-c2cncc(N3CCN(c4ccncc4)CC3)n2)c1"
value = 18.85


Each compound below has a reported value. Please supply its Inhibition.
1. CC(C)c1ncc(-c2ccncc2)c([C@H]2CC[C@H](CNC(=O)c3cccnc3)CC2)n1
2. Cl.O[C@@H](c1cc(C(F)(F)F)nc2c(C(F)(F)F)cccc12)[C@H]1CCCCN1
3. O=C(Nc1nnc(S)s1)c1cc(Br)ccc1Cl
4. CCNC(=O)C(C)Nc1nc(-c2cccnc2)nc2sc(C)c(C)c12 (centres undefined)
5. FC(F)(F)c1ccc(N(c2cccnc2)C2CCN(c3ccc(C(F)(F)F)cn3)CC2)cc1
6. CS(=O)(=O)c1ccccc1C(=O)N(Cc1ccccc1)c1ccccc1
7. CCC(C)NC(=O)c1ccc(NC(=O)C2(c3ccccc3)CCCC2)cc1 (centres undefined)

Outgoing:
1: 19.09; 2: 45.36; 3: 0.16; 4: 4.74; 5: 14.25; 6: 14.37; 7: 13.32
